Data origin: the supplement of paper PMC9112550

Some sequences, each annotated with its measured shrunken log2 fold change.
# Test system: Escherichia coli TOP10;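 note: peptides expressed intracellularly from a pBAD plasmid library in pooled LB shake-flask culture, induced with 0.3% L-arabinose, DNA abundance read by NGS, three biological replicates, DESeq2 with apeglm shrinkage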
# run.description: shrunken log2 fold change of peptide-encoding DNA abundance (4.5 h post-induction vs induction); higher = less antimicrobial activity (less host growth inhibition)
# settings: time post-induction: 4.5 h; library: site-saturation at positions 5, 18, 19, 20

Use these answered entries as a reference point.
| record.sequence | quantity.kind | test.result |
| --- | --- | --- |
| RRIRNRPPRLPRPRPRPVRYPRP | shrunken log2 fold change | -0.0196 |
| RRIRNRPPRLPRPRPRPLKVPRP | shrunken log2 fold change | 4.47 |
| RRIRHRPPRLPRPRPRPDWYPRP | shrunken log2 fold change | -0.061 |
| RRIRYRPPRLPRPRPRPIHAPRP | shrunken log2 fold change | -1.49 |
| RRIRERPPRLPRPRPRPGSNPRP | shrunken log2 fold change | -0.0638 |
| RRIRRRPPRLPRPRPRPRCIPRP | shrunken log2 fold change | 0.174 |
| RRIRWRPPRLPRPRPRPMHVPRP | shrunken log2 fold change | 0.0255 |

Alright, here's another sequence for you.
get_value(item= RRIRCRPPRLPRPRPRPHTGPRP , readout=shrunken log2 fold change) returns -0.341
